endpoint_name: melting point

Solved entries (count: 3):
molecule="COC12CC(C)(c3nc(-c4cncc(Br)c4)no3)CN(C)C1Cc1c(Br)n(C)c3cccc2c13 (stereo not given)" endpoint_name="melting point" meas_value="167 to 172 °C"
molecule="CCC1(c2cccs2)OCC(=O)Nc2ccc(-c3coc(C#N)c3)cc21 (stereo not given)" endpoint_name="melting point" meas_value="99 to 100 °C"
molecule=C=CCOc1cn(C)c2cc(OCC(F)(F)F)ccc2c1=O endpoint_name="melting point" meas_value="120 °C"

Task item: State the recorded melting point for this entry: CNC(=O)NCC1OC(n2cc(C)c(=O)[nH]c2=O)CC1O (stereo not given)
Reply: 238 to 239 °C

Task item: State the recorded melting point for this entry: `Cc1cc(Oc2ccc([N+](=O)[O-])c(C(F)(F)F)c2)n[nH]1`
Reply: 96 to 98 °C

All values here come from a melting point compilation (Tetko et al.; mined from patent text by program, amines drawn as free bases though some values may be those of a salt).
